Cited source for all entries: the supplement of paper PMC9170038

Test system: MS2 coat protein
experiment_description: apparent KD of MS2 coat protein; higher = weaker reporter binding
run_conditions: Eterna round: R107; input ligand: theophylline 20 uM
property: apparent KD of MS2 coat protein (nM)

| construct_sequence | value_observed |
| --- | --- |
| ACAUACAUGAGGAUCACCCAUGUCCAUGUUCGAGGACCGGUACGGCCGCCACUCGCGCGACAGCAUGAGGAACUUGAGGAUCACA [Exclusion Tryptophan A] | 104 |
| GGUACAUGAGGAUCACCCAUGUAUGGGUACCGAGGACCGGUACGGCCGCCACUCGCAGGACAUGAGGAUCACCCAUGUGCAACCG [SSTA DOUBLE!!! :-D #11] | 144 |
| AAGGUAUCACAGACAUGGGUGUACUGUGAUACCAGCUAGGAAACUAGCCCUUGGCAGCACAUGAGGAUCACCCAUGUAAGAAUAA [(T)'-(M)'-(T1)-(T2)-(M1)-(M2)_Design4_2/19/17] | 94.9 |
| GUAAUAUACAGAAGGAGCGUGAUAGUGAGCUUGUACAACAUGAGGAUCACCCAUGUAUAAUCACAGGUAGGUCGCUGUAUAGGGU [Arg B SS t2] | 21.9 |
| AGCACUGUGACGGCCGCCACUACAUAACAUGGGUGGUCAGGUUCAUUACAUGAGGAUCACCCAUGUAGGACCGGGUCUCAGUGCA [Omei Trp Exc B A v11] | 17.7 |
| GCUAGGUCUACGGCCGCCACUAGACGUGGGUAAGACAUGAGGAUCACCCAUGUACUACGGGCGCUUAGGACCGGGUAGACCUAGC [SSTB NP+V+V2 #17 +-Same Structure] | 187 |
